- Tested on: NCI/ADR-RES ovarian
- experiment-notes: NCI tumour cell line growth inhibition, 48 h; in the data active = GI50 below about 0.43 µM; inactive = the rest
Hi! Could you answer with just one of these? True (active), False (inactive)

1. CN1C(=O)C23CC4(C56CC78SSC(CO)(C(=O)N7C5Nc5ccccc56)N(C)C8=O)c5ccccc5NC4N2C(=O)C1(CO)SS3 (stereo not given)
True
2. O=C(c1cccs1)c1c(C(F)(F)F)n([O-])c2ccc(Cl)cc2[n+]1=O
False
3. Cc1ccc(/C(=C/C=C(/C#N)C(N)=O)Sc2ncnn2C)cc1
False
4. Cc1oc2nc[nH]c(=O)c2c1C(=O)/C=C/c1ccc(Br)cc1
False

As a next step, examine the compound that follows.
What classification did C1CCC(C(CC2CCCCN2)C2CCCCC2)CC1 (stereo not given) end up with in this test?
False

* * *

- Tested on: UO-31 renal
- experiment-notes: NCI tumour cell line growth inhibition, 48 h
Listed next: entries and their corresponding TGI.
Your answer should be a plain number; it is taken to be in µM.

1) CC1[C@@H]2CC=C3C4CCC5Cc6nc7c(nc6C[C@@]5(C)C4CC(=O)[C@]32CO[C@@]1(O)C(O)CC(C)(C)O)CC1CCC2C3=C[C@H]4O[C@@]5(O[C@@](C)(CO)C[C@@H]5O)C(C)[C@@]4(O)[C@]3(C)[C@@H](O)CC2[C@]1(C)C7 (some centres undefined)
0.0836
2) COc1cc2c3c(c1OC)-c1ccccc1C(C(O)c1ccccc1)C3N(C)CC2 (centres undefined)
68.3
3) COc1ccc2[nH]c(=O)c(/C=C/C(=O)c3ccccc3OC)cc2c1
2.28
4) S=C1Cc2cc3ccccc3nc2-c2ccccc2N1
24.1
5) COc1ccc(-c2cn(-c3cccc(C(=O)/C=C/c4cc(OC)c(OC)c(OC)c4)c3)c(=O)[nH]2)cc1
6.73
6) COc1ccc2[nH]c(Cl)c(/C=C3/C(=O)N(c4ccccc4)c4ccccc43)c2c1
93.1
7) O=[N+]([O-])c1ccc2c3c1[C@H]1O[C@H]1c1cccc(c1-3)[C@@H]1O[C@H]21
3.62
8) Oc1cc(Cn2cnc3c(Cl)nc(Cl)nc32)ccc1C12CC3CC(CC(C3)C1)C2
31.1
9) O=C(O)CCC(=O)N1C/C(=C\c2ccccc2)C(=O)/C(=C/c2ccccc2)C1
33

Fill blank: measured TGI of the compound Cc1ccc(-c2cc(-c3cc(-c4ccc(C)cc4C)n[nH]3)[nH]n2)c(C)c1 is ____.
45.7

* * *

- Test system: T-47D breast
- experiment-notes: NCI tumour cell line growth inhibition, 48 h
readout: GI50

A selection of reference data follows.
1) Cc1cc(-c2ccc(C3C(C#N)=C(N)Oc4c3c(=O)oc3ccccc43)cc2)cnc1F (centres undefined)
29.5 µM
2) N=C(N)c1ccc(-c2ccc(-c3ccc(F)cc3)s2)nc1
2.18 µM
3) O=C(Nc1ccc(-n2ccc3c(NC(=O)c4ccccc4)ncnc32)cc1)c1ccc(Cl)c(C(F)(F)F)c1
2.9 µM
4) C=C1C(=O)O[C@H]2[C@H]1CC/C(COC(=O)NCc1c[nH]c3ccc(Br)cc13)=C\CC[C@@]1(C)O[C@@H]21
1.24 µM
5) CNC[C@@H](NC(=O)c1ccc(-c2nc([C@H]3CC[C@H](O)[C@@H](F)C3)cnc2N)cc1F)c1cc(F)cc(Br)c1
18.3 µM

# lookup: GI50 of CN1CCN(Cc2ccc(NC(=O)c3cncc(C#Cc4cnc5ccc(Cl)nn45)c3)cc2C(F)(F)F)CC1
1.41 µM

And the next one, COc1cccc(-n2ncc3c(N/N=C/c4cccc(F)c4)ncnc32)c1 ?
6.41 µM

What do you have for O=C(Cc1ccc(OCc2ccccc2)cc1)NCc1ccc2c(c1)OCO2 ?
48.3 µM

Would you mind doing Nc1c(C(=O)c2cccc(-c3ccncc3)c2)cnn1-c1ccc(F)cc1 as well?
9.94 µM
